Target Entity: Recombinant human HDAC1 (Homo sapiens, UniProt Q13547)
Construct: FLAG (C); made in house
Sequence (Q13547 whole entry): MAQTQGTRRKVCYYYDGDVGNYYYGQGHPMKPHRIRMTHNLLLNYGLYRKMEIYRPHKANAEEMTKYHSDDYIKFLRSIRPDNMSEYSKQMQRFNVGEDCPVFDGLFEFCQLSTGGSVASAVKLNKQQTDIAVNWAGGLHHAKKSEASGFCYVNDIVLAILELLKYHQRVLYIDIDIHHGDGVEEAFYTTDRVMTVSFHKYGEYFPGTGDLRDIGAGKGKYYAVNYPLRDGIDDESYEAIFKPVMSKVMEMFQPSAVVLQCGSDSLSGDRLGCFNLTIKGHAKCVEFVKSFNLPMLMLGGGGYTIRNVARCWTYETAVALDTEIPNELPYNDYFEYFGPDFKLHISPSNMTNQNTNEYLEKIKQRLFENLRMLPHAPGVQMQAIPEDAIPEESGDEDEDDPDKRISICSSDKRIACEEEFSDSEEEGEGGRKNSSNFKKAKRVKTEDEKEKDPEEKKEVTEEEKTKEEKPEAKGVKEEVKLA
Protocol: Human HDAC enzyme inhibitor Fluor-de-Lys assay, HDAC1
Assay type: biochemical
Particulars: recombinant human HDAC1, Fluor-de-Lys assay
Observation Type: pIC50
Schema: pIC50 number; meaning minus log10 of the concentration expressed in molar units.

| Molecule | pIC50 |
| --- | --- |
| CCC(=O)CCCCC[C@H](NC(=O)C1=NOC2(CCN(C)CC2)C1)c1ncc(-c2cc3ccc(C)nc3cc2F)[nH]1 | 8.88 |

Q. Consider the molecule `CCC(=O)CCCCC[C@@H](NC(=O)C1CCC2(CC1)CNC2)c1ncc(-c2ccccc2)[nH]1` and give its measured pIC50.
A. 7.44

Q. What do you get for CCC(=O)CCCCC[C@H](NC(=O)C1CC12CCOCC2)c1ncc(-c2cc3ccc(C)nc3cc2OC)o1 (single isomer, unassigned) [Compound 409] ?
A. 7.98

Q. Next up: `CCC(=O)CCCCC[C@H](NC(=O)CCN1C(=O)C(CC)=NC12CCOCC2)c1ncc(-c2ccccc2)[nH]1`
A. 7.43

Q. Consider next the molecule `CCC(=O)CCCCC[C@H](NC(=O)C1=NOC2(CCN(CC3CC3)CC2)C1)c1ncc(-c2cc3ccc(C)nc3cc2F)[nH]1` in the same way.
A. 9.25

Q. Now give it for `CCC(=O)CCCCC[C@H](NC(=O)C1=NOC2(CCN(C)CC2)C1)c1ncc(-c2ccc(-c3ccncc3)cc2OC)o1` too.
A. 8.62

Q. What about CCC(=O)CCCCCC(NC(=O)C1CCC2(CC1)OC(=O)c1ncccc12)c1nnc(-c2cc3ccccc3nc2OC)o1 (stereo not shown) ?
A. 7.21

====

Target Entity: Recombinant human HDAC1 (Homo sapiens, UniProt Q13547)
Construct: FLAG (C); made in house
Protocol: Human HDAC enzyme inhibitor Fluor-de-Lys assay, HDAC1
Type: biochemical
Particulars: recombinant human HDAC1, Fluor-de-Lys assay
pIC50: −log10 of the molar value.
Values of pIC50 greater than or equal to 7 map to Met; values below map to Not met.

| Compound | Cat |
| --- | --- |
| CCC(=O)CCCCC[C@H](NC(=O)[C@H]1CC12CCN(C)CC2)c1ncc(-c2cc3ocnc3cc2OC)o1 | Met |
| CCC(=O)CCCCC[C@H](NC(=O)C1=NOC2(CCN(C)CC2)C1)c1ncc(-c2ccccc2)[nH]1 | Met |
| CCC(=O)CCCCC[C@H](NC(=O)CC1CC2(C1)CN(C(C)=O)C2)c1ncc(-c2ccccc2)[nH]1 | Not met |
| CCC(=O)CCCCC[C@H](NC(=O)CC1CC2(C1)CN(C)C2)c1ncc(-c2cc3ccccc3nc2OC)[nH]1 | Met |
| CCC(=O)CCCCC[C@H](NC(=O)[C@H]1CC12CCN(CC1CC1)CC2)c1ncc(-c2cc3ccc(C)nc3cc2OC)o1 | Met |
| CCC(=O)CCCCCC(CC)(NC(=O)[C@H]1CC12CCN(CC1CC1)CC2)c1nc(-c2cc3ccc(C)nc3cc2OC)c[nH]1 (stereo partly shown) | Not met |

// switching to the query compound
Q. Could you tell me if the measured pIC50 of `CCC(=O)CCCCC[C@H](NC(=O)C1=NOC2(CCN(C)CC2)C1)c1nnc(-c2cc3ccccc3nc2OC)o1` reaches 7 or more?
A. Met

Data origin, for the record: patent US12590099B2
